Biological target: AMP-activated protein kinase, AMPK (Homo sapiens) (UniProt P54646+O43741+P54619+Q9UGJ0+Q9Y478+Q13131+Q9UGI9)
Test: AMP-dependent Kinase enzyme assay. An in vitro enzyme assay that detects ADP turnover that is directly proportional to AMPK activity. This uses naive AMPK that is activated during the assay with MK-8722
Type: functional
Parameters: scale not given: direction of the effect not stated beside the values
Details: 30 µM
Percent Effect: recorded values
Field: numeric (%). Do not append units.

Some compounds with recorded Percent Effect:
>>> endpoint_result("O=C(COc1ccc(C(F)(F)F)cc1)NS(=O)(=O)c1cccnc1")
4.15
>>> endpoint_result("Cc1cc(NC(=O)NCc2ccccn2)n(C)n1")
3.11
>>> endpoint_result("CCO[C@@H]1CC[C@H]2[C@H]1OCCN2C(=O)C1CCOCC1")
-7.07
>>> endpoint_result("CN(CCc1cccs1)C1CCCN(Cc2noc(C3CC3)n2)C1 (stereo unspecified)")
-15.1
>>> endpoint_result("COc1ccc(C(CO)NC(=O)Nc2cccnc2)cc1 (stereo unspecified)")
-0.874
>>> endpoint_result("Cc1cc(C)n(CC2CN(CC(=O)NC3CCCC3)CCO2)n1 (stereo unspecified)")
2.32
>>> endpoint_result("O=S(=O)(Cc1ccccc1F)NCCN1CCOCC1")
-0.989
>>> endpoint_result("CCc1nccn1C1CCCN(C(=O)c2ccc3c(c2)OCO3)C1 (stereo unspecified)")
8.35

Ask | Return reported Percent Effect; argument: COc1ccc(CN2C[C@@H]3CCCO[C@@H]3[C@H](NS(C)(=O)=O)C2)cc1
Reply | -2.32

Ask | # lookup: Percent Effect of CNS(=O)(=O)c1ccc(C(=O)NC2CCc3nc(C)cn3C2)o1 (stereo unspecified)
Reply | 5.73

Ask | Given the compound Cc1cccc(-c2nc(CN(Cc3cccs3)CC3CCCO3)no2)c1 (stereo unspecified) , what is its reported Percent Effect?
Reply | 2.38

---

Tested on: Trypanosoma cruzi
Experiment: Trypanosoma cruzi phosphomannomutase and mannose-1-phosphate guanylyltransferase assay
Type: functional
Design: scale not given: direction of the effect not stated beside the values
Details: 10 µM
A collection of compounds and their measured Percent Effect
Return type: number; implicit unit %.

Consider the following illustrative entries.
>>> endpoint_result("Cc1nc(CCCNC(=O)C2CC(=O)N(C3CC3)C2)sc1C (centres undefined)")
1.59
>>> endpoint_result("CCOCCCC(=O)NCCC(=O)N1CCN(c2ccccn2)CC1")
-3.99
>>> endpoint_result("Cc1cc(-c2cnn(CCNC(=O)c3cccnc3)c2C2CC2)on1")
-0.395
>>> endpoint_result("CC(C)NC(=O)COc1nc(C(C)(C)C)no1")
5.21
>>> endpoint_result("CC(=O)N1CCN(C)CC(COCc2ccccc2)C1 (centres undefined)")
4.54
>>> endpoint_result("CC(=O)N(Cc1ncc(C)o1)C1CCN(Cc2ccncc2Cl)C1 (centres undefined)")
3.62
>>> endpoint_result("Cc1cccnc1CN1CCC(c2nnc(Cn3cccn3)n2C)CC1")
-3.98
>>> endpoint_result("Cc1cc(C)n(CCCNC(=O)C(C)NC(=O)c2ccccc2Cl)n1 (centres undefined)")
-2.63
>>> endpoint_result("CS(=O)(=O)NC1CCc2c(ccc(=O)n2CC2CC2)C1 (centres undefined)")
-3.54
>>> endpoint_result("Cc1nc(C2CCCN(C(=O)c3cccc4c3OCO4)C2)no1 (centres undefined)")
-5.03

API: the following record is the query input.
Ask | Please look up its Percent Effect: Cn1cc(C(=O)N2C[C@@H]3COC[C@]3(COCc3cccnc3)C2)cn1
Reply | -4.83
